Entry source: patent US20110293610A1

- measurementTarget: T1, TNF-alpha (human, UniProt P01375 77-233)
- T1 construct: also called TNFα; TNF-α
- T1 sequence (P01375 77-233 limits assumed): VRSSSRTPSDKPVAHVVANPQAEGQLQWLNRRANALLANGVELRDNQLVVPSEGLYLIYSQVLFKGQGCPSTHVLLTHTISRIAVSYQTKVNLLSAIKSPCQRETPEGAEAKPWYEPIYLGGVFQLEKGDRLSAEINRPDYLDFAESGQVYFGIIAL
- methodSummary: phage ELISA
endpointLabel: binding result

binder	measValue
I072B09 (scFv) scFv: QVQLQQSGAEVKKPGASVKVSCRASGYTFTKYTMHWVRQAPGQGPEWMGWINGGSGDTKYSRKFQGRVTITKDTSASAAYMELSSLGSEDTALYYCARATYDPLTGYSFDGFDIWGQGTLVTVSSGGGGSGGGGSGGGGSSELTQDPAVSVALGQTVRITCQGDSLRSYYTNWFQQKPGQAPLLVVYAKNKRPSGIPDRFSGSSSGNTASLTITGAQAEDEADYYCNSRDSSGNHVVFGGGTKLTVLD	no binding
I068B04 (scFv) scFv: QVQLVQSGAEVKKPGSSVKVSCKASGGTVSSRTISWVRQAPGQGLEWMGGSLPPSGAPIYAQKFQGRVAITADALTNTAFMELRSLKSDDTAVYYCARDQGRYLDLWGRGTLVTVSSGGGGSGGGGSGGGGSALPVLTQPPSASATPGQRVTISCSGSSSNIGSNYVYWYQQLPGTAPKVLIYRNNQRPSGVPDRFSGSRSGTSASLAISGLRSEDEADYYCATWDDSLSGPVFGGGTKVTVLG	no binding
I051C04 (scFv, also called 1051C04) scFv: QVQLQQSGAEVKKPGSSVKVSCRTSGGTFSNYGLSWVRQAPGQGLEWMGGVIPISSTIKYGQKFQDRLTIAADDLTNTTFMELSSLRPEDTAVYYCARAATTSQKHNKYAYYFYGMDVWGQGTMVTVSSGGGGSGGGGSGGGGSAQSALTQPASVSGSPGQSITISCTGTSSDVGGYNYVSWYQQHPGKAPKLMIYEVSNRPSGVSNRFSGSKSGNTASLTISGLQAEDEADYYCSSYTSSSTLVFGGGTKVTVLG	no binding
